- Test system: HCT116 cells
- ASSAY SUMMARY: Cytotoxic activity: tumor cell proliferation assay (Alamar Blue)
- Type: cell-based
- PROTOCOL CONDITIONS: Homo sapiens, HCT-116, 72 h with compound, Alamar Blue readout
READOUT LABEL: IC50

Solved entries (count: 2):
Nc1nc(Nc2ccc(Oc3ccnc(C(F)(F)F)n3)cc2)cc(-c2ccccc2)n1 ... 17 nM
Cc1cc(Oc2ccc(Nc3cc(-c4ccc(N)nc4)nc(N)n3)cc2)ccn1 ... 6 nM

Batch request: IC50 for each of the following molecules.
1. Nc1ccc(-c2cc(Nc3ccc(Oc4ccnc(C(F)(F)F)n4)cc3)nc(N)n2)cn1
2. Cc1cccc(C)c1-c1cc(Nc2ccc(Oc3ccnc(C(F)(F)F)c3)cc2)nc(N)n1
3. Nc1nc(Nc2ccc(Oc3ccnc(C(F)(F)F)c3)cc2)cc(-c2cncnc2)n1

RESULT:
1. 3 nM
2. 62 nM
3. 135 nM

The measurements presented in this section are drawn from patent US20110098301A1.
